Recorded values, source paper PMC9940855.

Entries with their measured log10 Ki, system hCA IX (Homo sapiens, UniProt Q16790):
On a log10 scale: recorded Ki, unit nM.

See these solved cases before continuing.
Prompt: What value of log10 Ki has been reported for the following compound? NS(=O)(=O)c1cccc(NC(=S)N[C@@H]2CCN(c3ccc(C(F)(F)F)cn3)C2)c1 [40a]
Completion: 1.56

Prompt: Which log10 Ki value belongs to NS(=O)(=O)c1ccc(N2CC[C@@H](NC(=O)Nc3ccccc3Cl)C2)nc1 [12a] ?
Completion: 2.50

Prompt: For the compound shown here, NS(=O)(=O)c1cccc(NC(=O)N[C@@H]2CCN(c3cccc([N+](=O)[O-])n3)C2)c1 [44a] , give the reported log10 Ki.
Completion: 2.99

Dear colleague, could you send me log10 Ki for each of the items below? Thanks.
1. NS(=O)(=O)c1ccc(NC(=O)N[C@H]2CCN(c3cccc([N+](=O)[O-])n3)C2)cc1 [43b]
2. NS(=O)(=O)c1ccc(N2CC[C@@H](NC(=O)NS(=O)(=O)c3ccccc3)C2)nc1 [24a]
3. NS(=O)(=O)c1ccc(N2CC[C@H](NC(=O)Nc3ccc(Oc4ccccc4)cc3)C2)nc1 [13b]
4. NS(=O)(=O)c1ccc(NC(=S)N[C@@H]2CCN(c3cccc([N+](=O)[O-])n3)C2)cc1 [37a]
5. NS(=O)(=O)c1ccc(N2CC[C@H](NC(=O)Nc3ccccc3Cl)C2)nc1 [12b]

Completion:
1: 1.43; 2: 1.44; 3: 1.95; 4: 1.23; 5: 1.36

====

This document collects pKi values reported for hCA IX (Homo sapiens).
Numbers only, as −log10 of the molar value.

Example results:
Prompt: Fill in: pKi of NS(=O)(=O)c1ccc(NC(=O)N[C@@H]2CCN(c3ccc(C(F)(F)F)cn3)C2)cc1 [45a] is ___
Completion: 7.44

Prompt: Value lookup for pKi; key = NS(=O)(=O)c1ccc(N2CC[C@@H](NC(=O)Nc3cc(C(F)(F)F)cc(C(F)(F)F)c3)C2)nc1 [16a]
Completion: 5.84

Prompt: Recorded pKi of NS(=O)(=O)c1ccc(N2CC[C@H](NC(=O)NS(=O)(=O)c3ccccc3Cl)C2)nc1 [25b] , please.
Completion: 8.01

Prompt: I am curious: what pKi value has been reported for NS(=O)(=O)c1ccc(NC(=S)N[C@H]2CCN(c3cccc([N+](=O)[O-])n3)C2)cc1 [37b] ?
Completion: 8.89

Prompt: Which value of pKi has been reported for NS(=O)(=O)c1ccc(NC(=S)N[C@H]2CCN(c3ccc(C(F)(F)F)cn3)C2)cc1 [39b] in the records?
Completion: 8.22

Prompt: Returns the measured pKi for the input compound. Input: NS(=O)(=O)c1ccc(NC(=O)N[C@@H]2CCN(c3ccccn3)C2)cc1 [41a]
Completion: 7.54

Prompt: Look at this compound and give its reported pKi. NS(=O)(=O)c1ccc(N2CC[C@H](NC(=S)Nc3ccccc3F)C2)nc1 [21b]
Completion: 8.14

Prompt: Given NS(=O)(=O)c1ccc(N2CC[C@@H](NC(=O)Nc3ccc([N+](=O)[O-])cc3)C2)nc1 [19a] , state its recorded pKi.
Completion: 6.84

Prompt: For the compound shown here, NS(=O)(=O)c1cccc(NC(=S)N[C@@H]2CCN(c3cccc([N+](=O)[O-])n3)C2)c1 [38a] , give the reported pKi.
Completion: 6.79

Prompt: I would be grateful if you could share the reported pKi for NS(=O)(=O)c1ccc(NC(=S)N[C@@H]2CCN(c3ccc(C(F)(F)F)cn3)C2)cc1 [39a] .
Completion: 6.45

I have 2 compounds here; please give me pKi for each one.
1. NS(=O)(=O)c1ccc(N2CC[C@@H](NC(=O)Nc3ccc(Oc4ccccc4)cc3)C2)nc1 [13a]
2. NS(=O)(=O)c1cccc(NC(=O)N[C@@H]2CCN(c3ccccn3)C2)c1 [42a]

Completion:
[6.61, 6.90]

====

Target: TRPV1 receptor (Homo sapiens, UniProt Q8NER1)
Sequence (Q8NER1 whole entry): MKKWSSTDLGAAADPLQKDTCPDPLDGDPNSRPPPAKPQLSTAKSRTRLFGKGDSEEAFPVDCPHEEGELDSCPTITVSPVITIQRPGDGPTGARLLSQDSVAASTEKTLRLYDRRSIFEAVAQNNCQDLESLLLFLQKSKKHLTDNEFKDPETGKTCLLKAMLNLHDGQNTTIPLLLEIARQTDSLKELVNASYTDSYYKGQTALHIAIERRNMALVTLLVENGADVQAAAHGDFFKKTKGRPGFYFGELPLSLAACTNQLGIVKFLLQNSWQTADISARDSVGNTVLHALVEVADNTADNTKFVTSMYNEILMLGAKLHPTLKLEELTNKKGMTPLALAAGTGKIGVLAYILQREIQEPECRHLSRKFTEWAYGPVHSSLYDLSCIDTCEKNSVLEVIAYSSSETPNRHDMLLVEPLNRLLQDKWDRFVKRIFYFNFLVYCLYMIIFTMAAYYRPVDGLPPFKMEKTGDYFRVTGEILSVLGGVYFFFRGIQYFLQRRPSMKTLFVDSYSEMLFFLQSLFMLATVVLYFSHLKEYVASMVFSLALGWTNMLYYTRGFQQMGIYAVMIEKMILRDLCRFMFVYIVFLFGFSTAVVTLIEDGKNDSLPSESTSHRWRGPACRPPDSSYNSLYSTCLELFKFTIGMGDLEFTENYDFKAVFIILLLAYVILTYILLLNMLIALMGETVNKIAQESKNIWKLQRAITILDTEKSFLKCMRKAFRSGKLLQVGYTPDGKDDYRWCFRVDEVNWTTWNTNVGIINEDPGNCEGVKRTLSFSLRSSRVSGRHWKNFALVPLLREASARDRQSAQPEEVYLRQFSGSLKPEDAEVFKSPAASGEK
Test: TRPV1 assay, Fluo-4NW fluorescence in SH-SY5Y-TRPV1 cells
Settings: read-out: EC50 on TRPV1 receptor activity (agonism)
parameter: EC50

Consider the reported EC50 for these compounds:
Prompt: Value lookup for EC50; key = NS(=O)(=O)c1ccc(NC(=S)N[C@@H]2CCN(c3cccc([N+](=O)[O-])n3)C2)cc1 [37a]
Completion: 8 µM

Prompt: What value of EC50 has been recorded for this entry: NS(=O)(=O)c1ccc(N2CC[C@@H](NC(=O)Nc3ccccc3Cl)C2)nc1 [12a]
Completion: 11.9 µM

Prompt: What value of measured EC50 is listed for NS(=O)(=O)c1cccc(NC(=S)N[C@@H]2CCN(c3cccc([N+](=O)[O-])n3)C2)c1 [38a] ?
Completion: 44.2 µM

Prompt: EC50 lookup needed for NS(=O)(=O)c1cccc(NC(=O)N[C@@H]2CCN(c3ccc(C(F)(F)F)cn3)C2)c1 [46a] , thanks.
Completion: 37.3 µM

Prompt: Report EC50 for NS(=O)(=O)c1ccc(N2CC[C@@H](NC(=O)Nc3ccc(Oc4ccccc4)cc3)C2)nc1 [13a] please.
Completion: > 100 µM

Would you mind listing EC50 for each of the following compounds?
1. NS(=O)(=O)c1ccc(NC(=S)N[C@H]2CCN(c3ccc(C(F)(F)F)cn3)C2)cc1 [39b]
2. NS(=O)(=O)c1cccc(NC(=S)N[C@@H]2CCN(c3ccccn3)C2)c1 [36a]
3. NS(=O)(=O)c1ccc(NC(=O)N[C@@H]2CCN(c3cccc([N+](=O)[O-])n3)C2)cc1 [43a]

Completion:
1. 12.5 µM
2. > 100 µM
3. > 100 µM

For every item in the list below, what is its measured EC50?
1. NS(=O)(=O)c1ccc(N2CC[C@@H](NC(=O)Nc3ccc4c(c3)OCCO4)C2)nc1 [15a]
2. COc1ccccc1NC(=O)N[C@@H]1CCN(c2ccc(S(N)(=O)=O)cn2)C1 [18a]
3. NS(=O)(=O)c1ccc(NC(=S)N[C@@H]2CCN(c3ccccn3)C2)cc1 [35a]
4. NS(=O)(=O)c1ccc(N2CC[C@@H](NC(=O)Nc3c(F)cc(F)cc3Br)C2)nc1 [22a]
5. NS(=O)(=O)c1ccc(N2CC[C@@H](NC(=S)Nc3ccccc3F)C2)nc1 [21a]
6. NS(=O)(=O)c1ccc(N2CC[C@@H](NC(=O)Nc3ccc(F)cc3)C2)nc1
7. NS(=O)(=O)c1cccc(NC(=S)N[C@@H]2CCN(c3ccc(C(F)(F)F)cn3)C2)c1 [40a]

Completion:
1. > 100 µM
2. > 100 µM
3. > 100 µM
4. > 100 µM
5. > 100 µM
6. > 100 µM
7. 21.9 µM

Each compound below has a recorded value; state its EC50.
1. NS(=O)(=O)c1ccc(N2CC[C@@H](NC(=O)Nc3ccc(Cl)c(Cl)c3)C2)nc1 [14a]
2. NS(=O)(=O)c1ccc(N2CC[C@@H](NC(=O)Nc3ccccc3F)C2)nc1 [11a]
3. NS(=O)(=O)c1ccc(N2CC[C@@H](NC(=O)Nc3ccc(Cl)c(C(F)(F)F)c3)C2)nc1 [10a]
4. NS(=O)(=O)c1ccc(N2CC[C@@H](NC(=O)Nc3ccc([N+](=O)[O-])cc3)C2)nc1 [19a]

Completion:
> 100 µM
> 100 µM
74.5 µM
> 100 µM

====

Target: hCA XII (Homo sapiens)
Sequence (O43570 25-354): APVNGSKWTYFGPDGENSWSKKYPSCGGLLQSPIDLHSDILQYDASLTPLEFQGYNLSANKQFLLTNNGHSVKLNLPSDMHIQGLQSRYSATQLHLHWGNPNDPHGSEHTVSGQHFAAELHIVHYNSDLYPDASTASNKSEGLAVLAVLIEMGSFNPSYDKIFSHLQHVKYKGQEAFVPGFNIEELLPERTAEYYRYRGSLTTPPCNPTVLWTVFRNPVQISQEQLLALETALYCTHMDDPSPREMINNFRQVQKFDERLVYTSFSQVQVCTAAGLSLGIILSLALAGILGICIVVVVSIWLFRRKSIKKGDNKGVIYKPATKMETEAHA
Conditions: read-out: KI hCA XII; stopped-flow CO2 hydrase assay; mean from three different assays, errors ±5–10%
Provide the reported Ki of each item.
Numbers only, in nM.

Quick one: give me Ki for each item below, same order please.
1. NS(=O)(=O)c1ccc(NC(=O)N[C@H]2CCN(c3ccc(C(F)(F)F)cn3)C2)cc1 [45b]
2. NS(=O)(=O)c1cccc(NC(=S)N[C@H]2CCN(c3cccc([N+](=O)[O-])n3)C2)c1 [38b]
3. NS(=O)(=O)c1ccc(N2CC[C@H](NC(=S)Nc3ccccc3F)C2)nc1 [21b]
4. NS(=O)(=O)c1ccc(N2CC[C@H](NC(=O)Nc3ccccc3F)C2)nc1 [11b]
5. NS(=O)(=O)c1ccc(N2CC[C@@H](NC(=O)Nc3ccc(Oc4ccccc4)cc3)C2)nc1 [13a]
6. NS(=O)(=O)c1cccc(NC(=S)N[C@@H]2CCN(c3cccc([N+](=O)[O-])n3)C2)c1 [38a]

Completion:
8.6
9.3
41
43.9
407
238

====

Molecular target: hCA IV (Homo sapiens, UniProt P22748)
Sequence (P22748 19-312): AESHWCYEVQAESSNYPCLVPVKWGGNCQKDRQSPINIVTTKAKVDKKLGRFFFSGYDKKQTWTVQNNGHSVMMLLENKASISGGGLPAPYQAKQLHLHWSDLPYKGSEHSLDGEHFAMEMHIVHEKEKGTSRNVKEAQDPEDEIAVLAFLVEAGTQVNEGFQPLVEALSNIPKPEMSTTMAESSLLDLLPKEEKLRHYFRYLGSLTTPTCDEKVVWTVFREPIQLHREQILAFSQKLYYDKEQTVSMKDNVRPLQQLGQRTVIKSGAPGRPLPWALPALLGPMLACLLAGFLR
Please go through the items and note down their pKi.
Give bare numbers, as −log10 of the molar value.

Examples from the recorded data:
Prompt: Quick one: pKi for NS(=O)(=O)c1ccc(N2CC[C@@H](NC(=O)Nc3ccccc3Cl)C2)nc1 [12a] ?
Completion: 5.52

Prompt: Query: pKi; subject: NS(=O)(=O)c1ccc(NC(=O)N[C@H]2CCN(c3cccc([N+](=O)[O-])n3)C2)cc1 [43b]
Completion: 5.08

Prompt: Returns the measured pKi for the input molecule. Input: NS(=O)(=O)c1ccc(NC(=S)N[C@@H]2CCN(c3ccccn3)C2)cc1 [35a]
Completion: 6.11

Prompt: GET /values?readout=pKi&item= NS(=O)(=O)c1ccc(NC(=O)N[C@H]2CCN(c3ccc(C(F)(F)F)cn3)C2)cc1 [45b]
Completion: 5.01

Prompt: Using the record for NS(=O)(=O)c1ccc(N2CC[C@@H](NC(=O)NS(=O)(=O)c3ccccc3)C2)nc1 [24a] , report its pKi.
Completion: 7.44

Prompt: # pKi lookup, item NS(=O)(=O)c1cccc(NC(=O)N[C@@H]2CCN(c3ccccn3)C2)c1 [42a]
Completion: 5.61

State recorded pKi for all listed molecules.
1. NS(=O)(=O)c1ccc(N2CC[C@H](NC(=O)Nc3ccc4c(c3)OCCO4)C2)nc1 [15b]
2. NS(=O)(=O)c1ccc(NC(=S)N[C@H]2CCN(c3cccc([N+](=O)[O-])n3)C2)cc1 [37b]

Completion:
1: 5.24; 2: 5.49
